I'd appreciate it if you could supply Log 1/Km values for the items below.
Assay system: UniProt P08684
Sequence (P08684 whole entry): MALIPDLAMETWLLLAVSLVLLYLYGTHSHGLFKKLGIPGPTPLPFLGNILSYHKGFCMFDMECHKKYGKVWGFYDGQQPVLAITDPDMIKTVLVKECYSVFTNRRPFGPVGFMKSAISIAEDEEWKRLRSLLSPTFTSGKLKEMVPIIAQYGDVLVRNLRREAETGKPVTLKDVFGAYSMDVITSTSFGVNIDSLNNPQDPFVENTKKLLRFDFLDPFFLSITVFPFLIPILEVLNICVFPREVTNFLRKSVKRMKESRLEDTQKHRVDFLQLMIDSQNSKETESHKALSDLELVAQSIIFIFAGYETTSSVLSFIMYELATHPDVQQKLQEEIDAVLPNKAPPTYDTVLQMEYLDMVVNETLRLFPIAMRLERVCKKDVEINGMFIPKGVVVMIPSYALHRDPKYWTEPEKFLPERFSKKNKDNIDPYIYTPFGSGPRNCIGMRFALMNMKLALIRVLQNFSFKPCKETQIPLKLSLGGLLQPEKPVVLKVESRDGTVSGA
Experimental details: log (1/Km) value for human liver microsome cytochrome P450 3A4
Run parameters: microsomes
Output: the number by itself.

Please give the measured Log 1/Km for this molecule: `CO[C@H]1/C=C/O[C@@]2(C)Oc3c(C)c(O)c4c(c3C2=O)C2=NC3(CCN(CC(C)C)CC3)NC2=C(NC(=O)/C(C)=C\C=C\[C@H](C)[C@H](O)[C@@H](C)[C@@H](O)[C@@H](C)[C@H](OC(C)=O)[C@@H]1C)C4=O`
-1.0373

Please give the measured Log 1/Km for this molecule: CC(C)(C)NCC(O)COc1cccc2c1CCC(=O)N2 (stereo not given)
-1.8432

Please give the measured Log 1/Km for this molecule: Cc1c(C)c2c(c(C)c1O)CCC(C)(COc1ccc(CC3SC(=O)NC3=O)cc1)O2 (stereo not given)
-2.7918

Please give the measured Log 1/Km for this molecule: C=CC[C@@H]1/C=C(\C)C[C@H](C)C[C@H](OC)[C@H]2O[C@@](O)(C(=O)C(=O)N3CCCC[C@H]3C(=O)O[C@H](/C(C)=C/[C@@H]3CC[C@@H](O)[C@H](OC)C3)[C@H](C)[C@@H](O)CC1=O)[C@H](C)C[C@@H]2OC [TACROLIMUS ANHYDROUS]
-0.792

Please give the measured Log 1/Km for this molecule: `CC(=O)O[C@H]1C(=O)[C@@]2(C)[C@H]([C@H](OC(=O)c3ccccc3)[C@]3(O)C[C@H](OC(=O)[C@H](O)[C@@H](NC(=O)c4ccccc4)c4ccccc4)C(C)=C1C3(C)C)[C@]1(OC(C)=O)CO[C@@H]1C[C@@H]2O`
-1.2553

Please give the measured Log 1/Km for this molecule: CN(C)CCCC1(c2ccc(F)cc2)OCc2cc(C#N)ccc21 (stereo not given)
-2.4548

Please give the measured Log 1/Km for this molecule: `CC(=O)O[C@@]12CO[C@@H]1C[C@H](O)[C@@]1(C)C(=O)[C@H](O)C3=C(C)[C@@H](OC(=O)[C@H](O)[C@@H](NC(=O)OC(C)(C)C)c4ccccc4)C[C@@](O)([C@@H](OC(=O)c4ccccc4)[C@H]21)C3(C)C.O.O.O`
-0.0414

Please give the measured Log 1/Km for this molecule: `CC[C@H]1OC(=O)[C@H](C)[C@@H](O[C@H]2C[C@@](C)(OC)[C@@H](O)[C@H](C)O2)[C@H](C)[C@@H](O[C@@H]2O[C@H](C)C[C@H](N(C)C)[C@H]2O)[C@](C)(OC)C[C@@H](C)C(=O)[C@H](C)[C@@H](O)[C@]1(C)O`
-1.6875

Please give the measured Log 1/Km for this molecule: `O=[N+]([O-])c1ccc2ccc3cccc4ccc1c2c34`
-0.5185

Please give the measured Log 1/Km for this molecule: `CCCCN1CCCC[C@@H]1C(=O)Nc1c(C)cccc1C`
-2.0967

Please give the measured Log 1/Km for this molecule: `Nc1ccc(S(=O)(=O)c2ccc(N)cc2)cc1`
-2.2304

Please give the measured Log 1/Km for this molecule: `CN(C)c1ccc([C@H]2C[C@@]3(C)[C@@H](CC[C@@]3(O)/C=C\CO)[C@@H]3CCC4=CC(=O)CCC4=C32)cc1`
-0.9445

Please give the measured Log 1/Km for this molecule: `CCc1c2c(nc3ccc(OC(=O)N4CCC(N5CCCCC5)CC4)cc13)-c1cc3c(c(=O)n1C2)COC(=O)[C@]3(O)CC`
-1.2648

Please give the measured Log 1/Km for this molecule: `C/C=C1/C[C@@H](C)[C@@](C)(O)C(=O)OCC2=CCN3CC[C@@H](OC1=O)[C@@H]23`
-2.4772

Please give the measured Log 1/Km for this molecule: NC(=O)N1c2ccccc2C=Cc2ccccc21 [CARBAMAZEPINE]
-2.6532

Please give the measured Log 1/Km for this molecule: CN(C)c1ccc([C@H]2C[C@]3(C)[C@@H](CC[C@]3(O)CCCO)C3CCC4=CC(=O)CCC4=C32)cc1 (single isomer, unassigned)
-1.2923

Please give the measured Log 1/Km for this molecule: `CCOc1ccc2ccc(=O)oc2c1`
-3.4771

Please give the measured Log 1/Km for this molecule: O=c1[nH]c2ccccc2n1C1CCN(CCCC(c2ccc(F)cc2)c2ccc(F)cc2)CC1 [PIMOZIDE]
-0.7559

Please give the measured Log 1/Km for this molecule: `O=C(N[C@H](/C=C/S(=O)(=O)c1ccccc1)CCc1ccccc1)[C@H](Cc1ccccc1)NC(=O)N1CCOCC1`
-1.4843

Please give the measured Log 1/Km for this molecule: `CN(C)Cc1nnc2n1-c1ccc(Cl)cc1C(c1ccccc1)=NC2`
-1.9628
